For each record, write down the corresponding normalized RNA/DNA level with ligand (log10).
B1: library; a variant is named by its letters at N, in order (parent)
chain: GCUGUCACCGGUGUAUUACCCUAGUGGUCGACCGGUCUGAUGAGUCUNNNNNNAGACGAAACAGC

# Variants of: B1
# assay_protocol: normalized RNA/DNA level with ligand (relative to sTRSVctl = 100) (log10 (% of sTRSVctl)); ligand: hypoxanthine (xanthine aptamer); higher = less ribozyme self-cleavage, higher mRNA level
# condition_parameters: ligand concentration (+) RNA-Seq: 5 mM, HEK293T, reporter: mCherry (pCS4076), ligand present: yes
Respond with the number and no other words.

So for GCUGUCACCGGUGUAUUACCCUAGUGGUCGACCGGUCUGAUGAGUCUUUGUGAAGACGAAACAGC [UUGUGA] , the logged normalized RNA/DNA level with ligand (log10) turned out to be 1.98

So for GCUGUCACCGGUGUAUUACCCUAGUGGUCGACCGGUCUGAUGAGUCUCCUCUAAGACGAAACAGC [CCUCUA] , the logged normalized RNA/DNA level with ligand (log10) turned out to be 1.98

So for GCUGUCACCGGUGUAUUACCCUAGUGGUCGACCGGUCUGAUGAGUCUACGUUUAGACGAAACAGC [ACGUUU] , the logged normalized RNA/DNA level with ligand (log10) turned out to be 1.84

So for GCUGUCACCGGUGUAUUACCCUAGUGGUCGACCGGUCUGAUGAGUCUGGUUGAAGACGAAACAGC [GGUUGA] , the logged normalized RNA/DNA level with ligand (log10) turned out to be 1.94

So for GCUGUCACCGGUGUAUUACCCUAGUGGUCGACCGGUCUGAUGAGUCUGUUCCCAGACGAAACAGC [GUUCCC] , the logged normalized RNA/DNA level with ligand (log10) turned out to be 1.99

So for GCUGUCACCGGUGUAUUACCCUAGUGGUCGACCGGUCUGAUGAGUCUACUUUUAGACGAAACAGC [ACUUUU] , the logged normalized RNA/DNA level with ligand (log10) turned out to be 1.92

So for GCUGUCACCGGUGUAUUACCCUAGUGGUCGACCGGUCUGAUGAGUCUUUGACUAGACGAAACAGC [UUGACU] , the logged normalized RNA/DNA level with ligand (log10) turned out to be 1.95

So for GCUGUCACCGGUGUAUUACCCUAGUGGUCGACCGGUCUGAUGAGUCUGCCGUUAGACGAAACAGC [GCCGUU] , the logged normalized RNA/DNA level with ligand (log10) turned out to be 1.98

So for GCUGUCACCGGUGUAUUACCCUAGUGGUCGACCGGUCUGAUGAGUCUUUGAUAAGACGAAACAGC [UUGAUA] , the logged normalized RNA/DNA level with ligand (log10) turned out to be 1.93

So for GCUGUCACCGGUGUAUUACCCUAGUGGUCGACCGGUCUGAUGAGUCUGCUAGCAGACGAAACAGC [GCUAGC] , the logged normalized RNA/DNA level with ligand (log10) turned out to be 1.89

So for GCUGUCACCGGUGUAUUACCCUAGUGGUCGACCGGUCUGAUGAGUCUUGCCCGAGACGAAACAGC [UGCCCG] , the logged normalized RNA/DNA level with ligand (log10) turned out to be 1.9

So for GCUGUCACCGGUGUAUUACCCUAGUGGUCGACCGGUCUGAUGAGUCUCCCUGUAGACGAAACAGC [CCCUGU] , the logged normalized RNA/DNA level with ligand (log10) turned out to be 1.94

So for GCUGUCACCGGUGUAUUACCCUAGUGGUCGACCGGUCUGAUGAGUCUAGCUAUAGACGAAACAGC [AGCUAU] , the logged normalized RNA/DNA level with ligand (log10) turned out to be 1.96

So for GCUGUCACCGGUGUAUUACCCUAGUGGUCGACCGGUCUGAUGAGUCUUAUGCGAGACGAAACAGC [UAUGCG] , the logged normalized RNA/DNA level with ligand (log10) turned out to be 1.88

So for GCUGUCACCGGUGUAUUACCCUAGUGGUCGACCGGUCUGAUGAGUCUUGUGGCAGACGAAACAGC [UGUGGC] , the logged normalized RNA/DNA level with ligand (log10) turned out to be 1.99

So for GCUGUCACCGGUGUAUUACCCUAGUGGUCGACCGGUCUGAUGAGUCUUAGGGAAGACGAAACAGC [UAGGGA] , the logged normalized RNA/DNA level with ligand (log10) turned out to be 1.86

So for GCUGUCACCGGUGUAUUACCCUAGUGGUCGACCGGUCUGAUGAGUCUUGAUAGAGACGAAACAGC [UGAUAG] , the logged normalized RNA/DNA level with ligand (log10) turned out to be 1.88

So for GCUGUCACCGGUGUAUUACCCUAGUGGUCGACCGGUCUGAUGAGUCUUUAGACAGACGAAACAGC [UUAGAC] , the logged normalized RNA/DNA level with ligand (log10) turned out to be 1.9

So for GCUGUCACCGGUGUAUUACCCUAGUGGUCGACCGGUCUGAUGAGUCUGAGAGCAGACGAAACAGC [GAGAGC] , the logged normalized RNA/DNA level with ligand (log10) turned out to be 1.8

So for GCUGUCACCGGUGUAUUACCCUAGUGGUCGACCGGUCUGAUGAGUCUAGGCUUAGACGAAACAGC [AGGCUU] , the logged normalized RNA/DNA level with ligand (log10) turned out to be 1.97

So for GCUGUCACCGGUGUAUUACCCUAGUGGUCGACCGGUCUGAUGAGUCUAGCAUAAGACGAAACAGC [AGCAUA] , the logged normalized RNA/DNA level with ligand (log10) turned out to be 1.9

So for GCUGUCACCGGUGUAUUACCCUAGUGGUCGACCGGUCUGAUGAGUCUGUCCGGAGACGAAACAGC [GUCCGG] , the logged normalized RNA/DNA level with ligand (log10) turned out to be 1.94

So for GCUGUCACCGGUGUAUUACCCUAGUGGUCGACCGGUCUGAUGAGUCUCUUGGCAGACGAAACAGC [CUUGGC] , the logged normalized RNA/DNA level with ligand (log10) turned out to be 1.95

So for GCUGUCACCGGUGUAUUACCCUAGUGGUCGACCGGUCUGAUGAGUCUCAGGAUAGACGAAACAGC [CAGGAU] , the logged normalized RNA/DNA level with ligand (log10) turned out to be 1.95

So for GCUGUCACCGGUGUAUUACCCUAGUGGUCGACCGGUCUGAUGAGUCUUAUUCAAGACGAAACAGC [UAUUCA] , the logged normalized RNA/DNA level with ligand (log10) turned out to be 1.94

So for GCUGUCACCGGUGUAUUACCCUAGUGGUCGACCGGUCUGAUGAGUCUUAACUGAGACGAAACAGC [UAACUG] , the logged normalized RNA/DNA level with ligand (log10) turned out to be 1.9

So for GCUGUCACCGGUGUAUUACCCUAGUGGUCGACCGGUCUGAUGAGUCUUAAUUUAGACGAAACAGC [UAAUUU] , the logged normalized RNA/DNA level with ligand (log10) turned out to be 1.98

So for GCUGUCACCGGUGUAUUACCCUAGUGGUCGACCGGUCUGAUGAGUCUUGGAUAAGACGAAACAGC [UGGAUA] , the logged normalized RNA/DNA level with ligand (log10) turned out to be 1.96

So for GCUGUCACCGGUGUAUUACCCUAGUGGUCGACCGGUCUGAUGAGUCUGCAUGGAGACGAAACAGC [GCAUGG] , the logged normalized RNA/DNA level with ligand (log10) turned out to be 1.83

So for GCUGUCACCGGUGUAUUACCCUAGUGGUCGACCGGUCUGAUGAGUCUGUUGUCAGACGAAACAGC [GUUGUC] , the logged normalized RNA/DNA level with ligand (log10) turned out to be 1.94

So for GCUGUCACCGGUGUAUUACCCUAGUGGUCGACCGGUCUGAUGAGUCUUAUUGAAGACGAAACAGC [UAUUGA] , the logged normalized RNA/DNA level with ligand (log10) turned out to be 1.9

So for GCUGUCACCGGUGUAUUACCCUAGUGGUCGACCGGUCUGAUGAGUCUUUUGCAAGACGAAACAGC [UUUGCA] , the logged normalized RNA/DNA level with ligand (log10) turned out to be 1.94

So for GCUGUCACCGGUGUAUUACCCUAGUGGUCGACCGGUCUGAUGAGUCUCAGUGGAGACGAAACAGC [CAGUGG] , the logged normalized RNA/DNA level with ligand (log10) turned out to be 1.9

So for GCUGUCACCGGUGUAUUACCCUAGUGGUCGACCGGUCUGAUGAGUCUCUGCGCAGACGAAACAGC [CUGCGC] , the logged normalized RNA/DNA level with ligand (log10) turned out to be 2

So for GCUGUCACCGGUGUAUUACCCUAGUGGUCGACCGGUCUGAUGAGUCUAGUGGCAGACGAAACAGC [AGUGGC] , the logged normalized RNA/DNA level with ligand (log10) turned out to be 1.98

So for GCUGUCACCGGUGUAUUACCCUAGUGGUCGACCGGUCUGAUGAGUCUCAGUUUAGACGAAACAGC [CAGUUU] , the logged normalized RNA/DNA level with ligand (log10) turned out to be 1.95

So for GCUGUCACCGGUGUAUUACCCUAGUGGUCGACCGGUCUGAUGAGUCUCAUCUGAGACGAAACAGC [CAUCUG] , the logged normalized RNA/DNA level with ligand (log10) turned out to be 1.97

So for GCUGUCACCGGUGUAUUACCCUAGUGGUCGACCGGUCUGAUGAGUCUUAAAUAAGACGAAACAGC [UAAAUA] , the logged normalized RNA/DNA level with ligand (log10) turned out to be 1.92

So for GCUGUCACCGGUGUAUUACCCUAGUGGUCGACCGGUCUGAUGAGUCUUGUUGGAGACGAAACAGC [UGUUGG] , the logged normalized RNA/DNA level with ligand (log10) turned out to be 1.91
